Origin of the recorded values: patent US7968577B2

- System Tested: human glucocorticoid receptor (Homo sapiens, UniProt P04150)
- Construct: purified human recombinant full-length glucocorticoid receptor; purchased Invitrogen Part #2893
- Sequence (P04150 whole entry): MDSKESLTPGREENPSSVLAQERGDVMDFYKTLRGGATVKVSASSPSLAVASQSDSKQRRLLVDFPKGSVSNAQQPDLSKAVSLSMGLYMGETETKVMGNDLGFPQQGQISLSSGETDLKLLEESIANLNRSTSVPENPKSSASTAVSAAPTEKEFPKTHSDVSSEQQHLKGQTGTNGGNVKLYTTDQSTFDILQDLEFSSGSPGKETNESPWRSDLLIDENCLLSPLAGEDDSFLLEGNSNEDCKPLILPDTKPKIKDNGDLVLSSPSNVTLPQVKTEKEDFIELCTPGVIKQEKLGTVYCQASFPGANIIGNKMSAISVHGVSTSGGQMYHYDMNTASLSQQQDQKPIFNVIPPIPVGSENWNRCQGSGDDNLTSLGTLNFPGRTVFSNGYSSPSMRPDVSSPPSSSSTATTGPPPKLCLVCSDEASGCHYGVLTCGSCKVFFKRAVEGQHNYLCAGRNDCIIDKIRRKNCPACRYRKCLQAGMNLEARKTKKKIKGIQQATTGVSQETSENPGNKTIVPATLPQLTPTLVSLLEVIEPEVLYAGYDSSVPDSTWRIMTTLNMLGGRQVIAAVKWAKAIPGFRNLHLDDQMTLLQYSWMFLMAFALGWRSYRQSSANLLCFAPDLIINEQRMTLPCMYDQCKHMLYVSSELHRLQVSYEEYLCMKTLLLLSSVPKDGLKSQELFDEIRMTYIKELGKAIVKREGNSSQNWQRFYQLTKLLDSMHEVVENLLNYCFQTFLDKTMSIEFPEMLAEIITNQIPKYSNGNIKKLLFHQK
- Experiment: Glucocorticoid Receptor Binding Assay (I), fluorescence polarization competitor kit (Fluormone GS Red)
- Conditions Used: GR Binding Assay (I)
Each entry below lists one item and its recorded Ki value.

Molecule | Ki / nM
COc1ccc(-c2ccc(C(CC(C)C)C(C)(C)C(=O)Nc3nncs3)cc2)cc1 (centres unmarked) [Example 394] | 9.28
CCCc1ccc(-c2ccc(C(CC(C)C)C(C)(C)C(=O)Nc3nncs3)cc2)cc1 (centres unmarked) [Example 399] | 7.1
COc1ccc(-c2ccc(C(c3ccccc3)C(C)(C)C(=O)Nc3nncs3)cc2)cc1 (centres unmarked) [Example 377] | 1.81
CC(C)CC(c1ccc(-c2ccc(Cl)cc2)cc1)C(C)(C)C(=O)Nc1nncs1 (centres unmarked) [Example 432] | 184
COc1ccc(C(c2ccccc2)C(C)(C)C(=O)Nc2nncs2)cc1C (single isomer, unassigned) [Example 295] | 13.9
CC(C)CC(c1ccc(-c2ccc(C(=O)NC3CC3)cc2)cc1)C(C)(C)C(=O)Nc1nncs1 (centres unmarked) [Example 429] | 31
COc1cccc(-c2ccc(C(c3ccccc3)C(C)(C)C(=O)Nc3nncs3)cc2)c1 (centres unmarked) [Example 410] | 4.45
CN(C)C(=O)c1ccc(-c2ccc(C(c3ccccc3)C(C)(C)C(=O)Nc3nncs3)cc2)cc1 (centres unmarked) [Example 379] | 1.24

----------
- Tested on: AP-1 induced transcriptional activity
- Experiment: Cellular Transrepressional Assay: AP-1 luciferase reporter in PMA-activated A549 cells
- Format: cell-based
- Conditions Used: Homo sapiens, A549, 7 h, maximum inhibition, Cellular Transrepression Assay; read-out: AP-1 Max % inh (Cellular Transrepression Assay)
Record MET whenever Emax is at 60% or higher; record NOT MET when lower.

Molecule | System Tested | Discrete Label
COc1ccc([C@@H](c2ccccc2)C(C)(C)C(=O)Nc2nncs2)cc1 | AP-1 induced transcriptional activity | NOT MET
CC(C)(C(=O)Nc1nc(Cc2ccc(-c3ccncc3)cc2)cs1)C(c1ccccc1)c1ccc(N2CCOCC2)cc1 (stereo not drawn) | AP-1 induced transcriptional activity | MET
COc1ccc(-c2ccc(C(c3ccccc3)C(C)(C)C(=O)Nc3nccs3)cc2)cc1 (stereo not drawn) | AP-1 induced transcriptional activity | NOT MET
CC(C)(C(=O)Nc1nccs1)C(c1ccccc1)c1ccc(N2CCOCC2)cc1 (stereo not drawn) | AP-1 induced transcriptional activity | NOT MET
COc1ccc(C(c2ccccc2)C(C)(C)C(=O)Nc2nc(Cc3ccc(-c4ccncc4)cc3)cs2)cc1 (stereo not drawn) | AP-1 induced transcriptional activity | MET

----------
- Test system: AP-1 induced transcriptional activity
- Experiment: Cellular Transrepressional Assay: AP-1 luciferase reporter in PMA-activated A549 cells
- Format: cell-based
- Conditions Used: Homo sapiens, A549, 7 h, maximum inhibition, Cellular Transrepression Assay; read-out: AP-1 Max % inh (Cellular Transrepression Assay)

Compound | Emax, %
CC(C)(C(=O)Nc1nc(Cc2ccc(-c3ccncc3)cc2)cs1)C(c1ccccc1)c1ccc(O)cc1 (stereo not shown) [Example 353] | 77.8
COc1ccccc1C(c1ccccc1)C(C)(C)C(=O)Nc1ncc(C)s1 (stereo not shown) [Example 82] | 25.9
CC(C)(C(=O)NC1CCCC1)[C@@H](c1ccccc1)c1ccc(O)cc1 [Example 335] | 21.2
COc1cccc(C(c2ccccc2)C(C)(C)C(=O)Nc2nc(Cc3ccc(-c4ccncc4)cc3)cs2)c1 (stereo not shown) [Example 305] | 84.2

----------
- System: AP-1 induced transcriptional activity
- Experiment: Cellular Transrepressional Assay: AP-1 luciferase reporter in PMA-activated A549 cells
- Type: cell-based
- Conditions Used: Homo sapiens, A549, 7 h, maximum inhibition, Cellular Transrepression Assay; read-out: AP-1 Max % inh (Cellular Transrepression Assay)
Each entry below lists one item and its recorded Emax value.

Molecule | Emax, %
CC(C)(C(=O)Nc1nc(Cc2ccc(-c3ccncc3)cc2)cs1)C(c1ccccc1)c1ccc(Cl)cc1 (stereo not shown) [Example 301] | 73.7
CC(C)(C(=O)Nc1nc(-c2ccnc3ccccc23)cs1)C(c1ccccc1)c1ccccc1 [Example 184] | 57.5
COCc1ccc(-c2ccc(C(c3ccccc3)C(C)(C)C(=O)Nc3nncs3)cc2)cc1 (stereo not shown) [Example 408] | 24.9
CCOC(=O)c1sc(NC(=O)C(C)(C)C(c2ccccc2)c2cccc(OC)c2)nc1C (stereo not shown) [Example 100] | 30
CC(C)(C(=O)Nc1nc(CCc2ccccc2)cs1)C(c1ccccc1)c1cccc(O)c1 (stereo not shown) [Example 203] | 35.1
Cc1cccc(-c2csc(NC(=O)C(C)(C)C(c3ccccc3)c3ccccc3)n2)c1 [Example 170] | 27
CC(C)(C(=O)Nc1nc(Cc2ccc(-c3ccncc3)cc2)cs1)C(c1ccccc1)c1ccccc1 [Example 299] | 69.3
COc1ccc(C(c2ccc(OC)cc2)C(C)(C)C(=O)Nc2nc(Cc3ccc(-c4ccncc4)cc3)cs2)cc1 [Example 304] | 74.5
CC(C)(C(=O)Nc1nccs1)C(c1ccc(N2CCOCC2)cc1)c1cccc(F)c1 (stereo not shown) [Example 228] | 36.9
CC(C)(C(=O)Nc1nncs1)C(c1ccccc1)c1ccc(-c2ccc(-c3ccccc3)cc2)cc1 (stereo not shown) [Example 404] | 21.9
CC(C)(C(=O)Nc1nc(-c2ccc(F)cc2)cs1)C(c1ccccc1)c1ccccc1 [Example 168] | 23
CC(C)(C)c1ccc(C(c2ccccc2)C(C)(C)C(=O)Nc2nc(Cc3ccc(-c4ccncc4)cc3)cs2)cc1 (stereo not shown) [Example 303] | 75.7
CC(C)(C(=O)Nc1nncs1)C(c1ccccc1)c1ccc(-c2ccccc2)cc1 (stereo not shown) [Example 402] | 26.5
CC(C)(C(=O)Nc1nncs1)C(c1ccccc1)c1ccc(-c2ccc(OC(F)(F)F)cc2)cc1 (stereo not shown) [Example 405] | 35.2
CC(C)(C(=O)Nc1nc(-c2cccc3ccccc23)cs1)C(c1ccccc1)c1ccc(O)cc1 (stereo not shown) [Example 217] | 35
COc1ccc(Cc2csc(NC(=O)C(C)(C)C(c3ccccc3)c3ccccc3)n2)cc1 [Example 297] | 77.3

----------
Each entry below lists one item and its recorded Emax value.
- Test system: AP-1 induced transcriptional activity
- Experiment: Cellular Transrepressional Assay: AP-1 luciferase reporter in PMA-activated A549 cells
- Type: cell-based
- Conditions Used: Homo sapiens, A549, 7 h, maximum inhibition, Cellular Transrepression Assay; read-out: AP-1 Max % inh (Cellular Transrepression Assay)

Compound | System Tested | Unit Label | Emax
COc1ccc(C(c2ccccc2)C(C)(C)C(=O)Nc2nc(CCc3ccccc3)cs2)cc1 (stereo not shown) | AP-1 induced transcriptional activity | % | 22.6
CCOC(=O)c1sc(NC(=O)C(C)(C)C(c2ccccc2)c2ccc(OC)cc2)nc1C (stereo not shown) | AP-1 induced transcriptional activity | % | 20.9
CC(C)(C(=O)Nc1nncs1)[C@@H](c1ccccc1)c1ccc(O)c(Br)c1 | AP-1 induced transcriptional activity | % | 66
CCCc1ccc(-c2ccc(C(CC(C)C)C(C)(C)C(=O)Nc3nccs3)cc2)cc1 (stereo not shown) | AP-1 induced transcriptional activity | % | 28.2

----------
Each entry below lists one item and its recorded Ki value.
- System Tested: human glucocorticoid receptor (Homo sapiens)
- Construct: purified human recombinant full-length glucocorticoid receptor; purchased Invitrogen Part #2893
- Experiment: Glucocorticoid Receptor Binding Assay (I), fluorescence polarization competitor kit (Fluormone GS Red)
- Conditions Used: GR Binding Assay (I)

Compound | System Tested | Unit Label | Ki
CC(=O)c1ccc(-c2ccc(C(CC(C)C)C(C)(C)C(=O)Nc3nncs3)cc2)cc1 (centres unmarked) [Example 438] | human glucocorticoid receptor (Homo sapiens) | nM | 12
CC(C)(C(=O)Nc1nncs1)C(c1ccccc1)c1ccc(Br)cc1 (centres unmarked) [Example 324] | human glucocorticoid receptor (Homo sapiens) | nM | 9.36
CC(C)CC(c1ccc(-c2ccc(O)cc2)cc1)C(C)(C)C(=O)Nc1nncs1 (centres unmarked) [Example 436] | human glucocorticoid receptor (Homo sapiens) | nM | 105
COc1ccc(C(c2ccccc2)C(C)(C)C(=O)Nc2nncs2)cc1C (centres unmarked) [Example 293] | human glucocorticoid receptor (Homo sapiens) | nM | 9.85
COc1ccc(-c2ccc(C(CC(C)C)C(C)(C)C(=O)Nc3nccs3)cc2)cc1 (centres unmarked) [Example 391] | human glucocorticoid receptor (Homo sapiens) | nM | 11.1
COc1ccc(C(c2ccccc2)C(C)(C)C(=O)Nc2nncs2)cc1C (single isomer, unassigned) [Example 294] | human glucocorticoid receptor (Homo sapiens) | nM | 9.22
CC(C)CC(c1ccc(-c2cccc(Cl)c2)cc1)C(C)(C)C(=O)Nc1nncs1 (centres unmarked) [Example 434] | human glucocorticoid receptor (Homo sapiens) | nM | 19.4
CC(C)CC(c1ccc(-c2ccc(C(=O)N3CCOCC3)cc2)cc1)C(C)(C)C(=O)Nc1nncs1 (centres unmarked) [Example 427] | human glucocorticoid receptor (Homo sapiens) | nM | 9.28
